The reader will find reported H2 permeability values listed item by item below.
Respond with the bare value in Barrer.

*Oc1ccc2nc(-c3ccccc3)c(-c3ccc(-c4nc5cc(*)ccc5nc4-c4ccccc4)cc3)nc2c1 (repeat unit): 17.2
*C(=C(*)c1ccc2c(c1)C(C)(C)c1cc([Si](C)(C)C)ccc1-2)c1ccccc1 (repeat unit): 8500
*OC1OC(COC(=O)NC(C)(C)C)C(*)C(OCC)C1OCC (repeat unit): 73
*C(=C(*)c1ccc2c(c1)C(C)(C)C(C)(C)C2(C)C)c1ccccc1 (repeat unit): 23600
*Oc1ccc(C(=O)c2ccc(-c3ccc(C(=O)c4ccc(Oc5ccc(C(C)(C)c6ccc(*)cc6)cc5)cc4)cc3)cc2)cc1 (repeat unit): 8.9
*Oc1ccc(S(=O)(=O)c2ccc(Oc3cccc4c(*)cccc34)cc2)cc1 (repeat unit): 8.1
*c1ccc(Cc2ccc(N3C(=O)c4ccc(-c5ccc6c(c5)C(=O)N(*)C6=O)cc4C3=O)cc2)cc1 (repeat unit): 6.35

Next item in the queue.
Ask: GET /values?readout=H2 permeability&item= *C(=C(*)c1ccc([Si](C)(C)C)cc1)c1ccccc1 (repeat unit)
Reply: 2600

* * *

Output yes (1) for records whose CH4 permeability is lower than 0.9 Barrer, no (0) for records at or above 0.9 Barrer.

*Oc1c(C)cc(C(C)(C)c2cc(C)c(Oc3ccc(S(=O)(=O)c4ccc(*)cc4)cc3)c(C)c2)cc1C (repeat unit): no (0)
*OC1OC(COC(=O)NC(C)(C)C)C(*)C(OCC)C1OCC (repeat unit): no (0)

Ask: Given *c1ccc(-c2ccc(Oc3ccc(C4(c5ccc(Oc6ccc(-c7ccc(N8C(=O)c9ccc(Oc%10ccc(C(C)(C)c%11ccc(Oc%12ccc%13c(c%12)C(=O)N(*)C%13=O)cc%11)cc%10)cc9C8=O)cc7)cc6C(F)(F)F)cc5)c5ccccc5C(=O)N4c4ccccc4)cc3)c(C(F)(F)F)c2)cc1 (repeat unit) , is recorded CH4 permeability strictly lower than 0.9 Barrer?
Reply: yes (1)

Ask: Please answer likewise for *c1ccc(Sc2ccc(Sc3ccc(Sc4ccc(Sc5ccc(N6C(=O)c7ccc(C(c8ccc9c(c8)C(=O)N(*)C9=O)(C(F)(F)F)C(F)(F)F)cc7C6=O)cc5)cc4)cc3)cc2)cc1 (repeat unit)
Reply: yes (1)

Ask: Note, next up: *Oc1ccc(S(=O)(=O)c2ccc(Oc3ccc(C(C)(C)c4ccc(*)cc4)cc3CN3C(=O)c4ccccc4C3=O)cc2)cc1 (repeat unit)
Reply: yes (1)

Ask: What do you get for *Oc1ccc(C2(c3ccc(Oc4ccc(S(=O)(=O)c5ccc(*)cc5)cc4)cc3)C3CC4CC(C3)CC2C4)cc1 (repeat unit) ?
Reply: yes (1)

Ask: Next compound up: *c1c(C)cc2c(c1C)C1c3ccccc3C2c2cc(C)c(-n3c(=O)c4cc5c(=O)n(*)c(=O)c5cc4c3=O)c(C)c21 (repeat unit)
Reply: no (0)

Ask: *c1ccc(*)n1C (repeat unit) ?
Reply: yes (1)

Ask: Entry to check: *c1ccc(-c2nnc(-c3cccc(-c4nnc(*)n4-c4ccccc4)c3)n2-c2ccccc2)cc1 (repeat unit)
Reply: yes (1)

* * *

Readout Kind: H2 permeability (Barrer)
Give the value, in units of Barrer, as a plain number.

*C(C(=O)OC(C)C)C(*)C(=O)OC(C)(C)C (repeat unit): 133
*C1C2CC(C1*)C([Si](C)(C)C)C2 (repeat unit): 6700
*c1c(C)cc2c(c1C)C1c3ccccc3C2c2cc(C)c(-n3c(=O)c4cc5c(=O)n(*)c(=O)c5cc4c3=O)c(C)c21 (repeat unit): 2380

Next, consider the following molecule.
Ask: # get_value(readout='H2 permeability', item= *Oc1ccc(Oc2ccc(Oc3ccc(S(=O)(=O)c4ccc(*)cc4)cc3)cc2)cc1 (repeat unit) )
Reply: 15

* * *

The reader will find reported CO2 permeability values listed item by item below.
Remember to follow the number with its unit.

*CC(*)OC(=O)c1ccc(C)cc1 (repeat unit): 6.73 Barrer
*O[Si](*)(C)CCC (repeat unit): 2300 Barrer
*CC(*)c1ccc(OC(C)=O)cc1 (repeat unit): 16.3 Barrer
*Oc1ccc(S(=O)(=O)c2ccc(Oc3cccc4c(*)cccc34)cc2)cc1 (repeat unit): 1.6 Barrer
*c1ccc(Oc2ccc(-n3c(=O)c4cc5c(=O)n(*)c(=O)c5cc4c3=O)cc2)cc1 (repeat unit): 2.73 Barrer
*=CC1CC(C=*)C(C(F)(F)F)(C(F)(F)F)C1(F)F (repeat unit): 102 Barrer
*C(=C(*)c1ccc(S(=O)(=O)O)cc1)c1ccc(S(=O)(=O)O)cc1 (repeat unit): 21 Barrer
*c1cc2c(cc1C)-c1cc(C)c(N3C(=O)c4ccc(S(=O)(=O)c5ccc6c(c5)C(=O)N(*)C6=O)cc4C3=O)cc1S2(=O)=O (repeat unit): 14.1 Barrer
*c1ccc(*)n1C (repeat unit): 6.9 Barrer
*Oc1ccc(C2(c3ccc(Oc4ccc(S(=O)(=O)c5ccc(*)cc5)cc4)cc3)OC(=O)c3ccccc32)cc1 (repeat unit): 5.74 Barrer

Ask: What measured CO2 permeability goes with *c1ccc(-c2ccc(N3C(=O)c4ccc(Oc5cc(C(C)(C)C)ccc5Oc5ccc6c(c5)C(=O)N(*)C6=O)cc4C3=O)c(OC)c2)cc1OC (repeat unit) ?
Reply: 6.7 Barrer

Ask: Next record, please: *c1ccc(Oc2ccc(C(c3ccc(Oc4ccc(N5C(=O)c6ccc(-c7ccc8c(c7)C(=O)N(*)C8=O)cc6C5=O)cc4)cc3)(C(F)(F)F)C(F)(F)F)cc2)cc1 (repeat unit)
Reply: 6.14 Barrer

Ask: Next molecule up: *c1cc(C(=O)OCCC(F)(F)C(F)(F)C(F)(F)C(F)(F)C(F)(F)C(F)(F)F)cc(N2C(=O)c3ccc(Oc4ccc5c(c4)C(=O)N(*)C5=O)cc3C2=O)c1 (repeat unit)
Reply: 11 Barrer

Ask: What do you have for *c1c(C)cc(-c2cc(C)c(N3C(=O)c4cc5c(cc4C3=O)S(=O)(=O)c3cc4c(cc3S5(=O)=O)C(=O)N(*)C4=O)c(C)c2)cc1C (repeat unit) ?
Reply: 39 Barrer

Ask: What do you get for *CC(*)OC1C2CC3CC(C2)CC1C3 (repeat unit) ?
Reply: 25.2 Barrer

Ask: Can you check *CC(O)CO* (repeat unit) next?
Reply: 0.012 Barrer

Ask: Also *C(=C(*)c1ccc([Si](C)(C)C)cc1)c1ccccc1 (repeat unit) ?
Reply: 4700 Barrer

* * *

Attribute: H2 permeability
Value expressed in Barrer; do not type the unit.

*c1ccc(C(c2ccc(N3C(=O)c4ccc(Oc5cc(C)c(Oc6ccc7c(c6)C(=O)N(*)C7=O)c(C)c5C)cc4C3=O)cc2)(C(F)(F)F)C(F)(F)F)cc1 (repeat unit): 77

Ask: Query: H2 permeability; subject: *c1ccc2c(-c3c(OC(C)=O)ccc4cc(N5C(=O)c6ccc(C(c7ccc8c(c7)C(=O)N(*)C8=O)(C(F)(F)F)C(F)(F)F)cc6C5=O)ccc34)c(OC(C)=O)ccc2c1 (repeat unit)
Reply: 6.56

Ask: Repeat for the following compound: *Oc1ccc(Oc2ccc(C(=O)c3ccc(*)cc3)cc2)c(-c2cccc(C(F)(F)F)c2)c1 (repeat unit)
Reply: 5.1

Ask: Could you do the same for *c1cc(C)c(C)c(N2C(=O)c3ccc(Oc4cc(C)c(Oc5ccc6c(c5)C(=O)N(*)C6=O)c(C)c4C)cc3C2=O)c1C (repeat unit) , please?
Reply: 130

Ask: Thanks! And *CC(*)(C)C(=O)OCC(F)(F)C(F)(F)C(F)(F)C(F)(F)C(F)(F)C(F)(F)C(F)(F)F (repeat unit) ?
Reply: 82

Ask: Now consider *c1ccc2c(c1)C1c3ccccc3C2c2ccc(N3C(=O)c4ccc(C(c5ccc6c(c5)C(=O)N(*)C6=O)(C(F)(F)F)C(F)(F)F)cc4C3=O)cc21 (repeat unit) and answer again.
Reply: 212

Ask: Can you check *c1ccc(Oc2ccc(C(c3ccc(Oc4ccc(-n5c(=O)c6cc7c(=O)n(*)c(=O)c7cc6c5=O)cc4)cc3)(C(F)(F)F)C(F)(F)F)cc2)cc1 (repeat unit) next?
Reply: 29.1

Ask: Note, next up: *Oc1ccc(Oc2ccc(C(=O)c3ccc(*)cc3)cc2)c(-c2cccc(C)c2)c1 (repeat unit)
Reply: 3.8

Ask: Another compound: *c1cc2c(cc1C)-c1cc(C)c(N3C(=O)c4ccc(S(=O)(=O)c5ccc6c(c5)C(=O)N(*)C6=O)cc4C3=O)cc1S2(=O)=O (repeat unit)
Reply: 45.4

Ask: Moving on to the next compound: *c1ccc(Oc2cccc(N3C(=O)c4ccc(C(c5ccc6c(c5)C(=O)N(*)C6=O)(C(F)(F)F)C(F)(F)F)cc4C3=O)c2)cc1 (repeat unit)
Reply: 23.7

Ask: Try *Oc1ccc(Cc2ccc(Oc3ccc(S(=O)(=O)c4ccc(*)cc4)cc3)cc2)cc1 (repeat unit) next.
Reply: 10.4

Ask: Item: *Cc1ccc(C*)c(C)c1 (repeat unit)
Reply: 0.994

Ask: Also need *C(=C(*)c1ccc2c(c1)C(C)(C)CC2(C)C)c1ccc(F)c(F)c1 (repeat unit) , thanks.
Reply: 36800

Ask: Okay, and *Oc1c(Br)cc(C(c2cc(Br)c(OC(=O)c3cc(C(*)=O)cc(C(C)(C)C)c3)c(Br)c2)(C(F)(F)F)C(F)(F)F)cc1Br (repeat unit) ?
Reply: 149
